Below are compounds with their pKi as measured on LdMAPK3 (Leishmania donovani, UniProt A0A3S7WR45).
Sequence (A0A3S7WR45 1-388): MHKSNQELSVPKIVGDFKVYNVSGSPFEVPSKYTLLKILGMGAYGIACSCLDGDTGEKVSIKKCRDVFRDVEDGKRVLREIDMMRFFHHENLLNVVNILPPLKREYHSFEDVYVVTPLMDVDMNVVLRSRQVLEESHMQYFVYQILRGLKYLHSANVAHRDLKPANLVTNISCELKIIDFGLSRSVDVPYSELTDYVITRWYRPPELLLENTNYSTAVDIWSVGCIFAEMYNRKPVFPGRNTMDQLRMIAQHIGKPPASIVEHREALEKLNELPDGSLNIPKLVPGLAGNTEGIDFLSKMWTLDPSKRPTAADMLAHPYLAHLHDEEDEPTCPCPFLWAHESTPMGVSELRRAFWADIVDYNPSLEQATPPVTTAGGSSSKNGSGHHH
// pKi is dimensionless: -log10 of concentration (M)

> print(dat)
                               compound                              assay.system  recorded.result
1  O=c1c(-c2ccc(O)cc2)coc2cc(O)cc(O)c12  LdMAPK3 (Leishmania donovani, UniProt A0A3S7WR45)             5.42

# ---- query compound ----
The compound O=c1cc(-c2ccccc2)oc2cc(O)cc(O)c12 [CHY, 5,7-dihydroxyflavone] , when measured on LdMAPK3 (Leishmania donovani, UniProt A0A3S7WR45), yielded pKi of 5.06
